# Test system: L1210 leukemia ip in BDF1 mice, survival T/C
# experiment notes: NCI In Vivo Anticancer Drug Screen. Data for tumor model L1210 Leukemia (intraperitoneal) in B6D2F1 (BDF1) mice
# study conditions: endpoint: mean survival time; dose: 50.0 mg/kg/injection; schedule: Q01DX009 (ip); vehicle: Klucel (hydroxypropylcellulose) (HPC); higher = longer survival
Inconclusive results and toxic doses are left out.
Listed molecules paired with reported T/C

| molecule | T/C |
| --- | --- |
| Cc1cc(C)nc(NC(N)=NCCc2ccccc2)n1 | 101 % of control |
| C#CCOC(=O)Nc1ccccc1 | 100 % of control |
| COC(=O)c1ccc(N)cc1O | 106 % of control |
| CN(C)c1ccc(/C=C/c2nc3ccc([N+](=O)[O-])cc3[nH]2)cc1 | 97 % of control |
| CC(=O)Oc1ccc(C)cc1 | 94 % of control |
| C=CCOCC(O)CN(C)CCCC (stereo not given) | 100 % of control |
| CCNC(C)(C)C(Cl)c1ccc(Cl)s1 (stereo not given) | 89 % of control |
| CCOC(=O)c1cnc2c(ccc3cc(OC)ccc32)c1Cl | 101 % of control |
| c1ccc(-c2nc3cnccc3o2)cc1 | 94 % of control |
| O=C1c2cccc3cc([N+](=O)[O-])cc(c23)C(=O)N1CCCN(CCO)CCO | 91 % of control |
